- system: PI3Kγ (p101/p110γ protein) (Homo sapiens)
- Construct: HA
- experimental.protocol: PI3Kγ In Vitro Kinase Assay
- experimental.context: purified recombinant p101/p110γ with G protein β1/γ2 subunits; 20 μM ATP, 25 μM PIP2; 20 minutes at room temperature
readout.type: IC50 (µM)

• NC(=O)c1cccc(CN2C(=O)COc3ccc(C=C4SC(=S)NC4=O)cc32)c1 [Example 172] = 0.145
• CS(=O)(=O)c1ccc(Cn2c(=O)oc3ccc(C=C4SC(=S)NC4=O)cc32)cc1 [Example 291] = 0.433
• O=C1NC(=S)SC1=Cc1cc(F)c2c(c1)N(Cc1ccc(F)cc1)C(=O)CO2 [Example 301] = 0.001
• O=C1COc2ccc(C=C3OC(=S)NC3=O)cc2N1 [Example 84] = 0.06
• O=C1NC(=S)S/C1=C\c1ccc2oc(=O)n(Cc3ccc(Cl)c(Cl)c3)c2c1 [Example 286] = 0.22
• Cc1cc(CN2C(=O)COc3ccc(C=C4SC(=S)NC4=O)cc32)nn1C(C)(C)C [Example 326] = 0.025
• O=C1NC(=S)SC1=Cc1ccc2c(c1)N(Cc1cc(Br)cc(Br)c1)C(=O)CO2 [Example 217] = 0.042
• O=C1NC(=S)SC1=Cc1ccc2c(c1)N(CCc1ccccc1)C(=O)CO2 [Example 5] = 0.025

----------
readout.type: melting point

• O=C1NC(=S)SC1=Cc1ccc2c(c1)N(CCc1ccc(F)c(F)c1)C(=O)CO2 [Example 133] = 263 to 266 °C
• CC(C)(C)c1ccc(CCN2C(=O)COc3ccc(C=C4SC(=S)NC4=O)cc32)cc1 [Example 131] = 283 to 285 °C
• COc1ccc(C(C)(C)C)cc1CN1C(=O)COc2ccc(C=C3SC(=S)NC3=O)cc21 [Example 95] = 255 to 257 °C
• Cc1ccc(C)c(CN2C(=O)COc3ccc(C=C4SC(=S)NC4=O)cc32)c1 [Example 99] = > 300 °C
• O=C1NC(=S)SC1=Cc1ccc2c(c1)N(OCC1CCCCC1)C(=O)CO2 [Example 208] = 249 to 250 °C
• COc1cc(CCN2C(=O)COc3ccc(C=C4SC(=S)NC4=O)cc32)cc(OC)c1 [Example 130] = 267 to 269 °C
• Cc1cc(C)cc(CON2C(=O)COc3ccc(C=C4SC(=S)NC4=O)cc32)c1 [Example 89] = > 300 °C
• O=C1NC(=S)SC1=Cc1ccc2c(c1)N(CCc1cccc(C(F)(F)F)c1)C(=O)CO2 [Example 106] = 241 to 243 °C
• O=C1NC(=S)SC1=Cc1ccc2c(c1)N(CCc1ccc(Br)cc1)C(=O)CO2 [Example 102] = 274 to 276 °C
• O=C1NC(=S)SC1=Cc1ccc2c(c1)N(CCc1ccc(Oc3ccccc3)cc1)C(=O)CO2 [Example 129] = 220 to 224 °C
• O=C1NC(=S)SC1=Cc1ccc2c(c1)N(OCc1ccc(Cl)c(Cl)c1)C(=O)CO2 [Example 88] = > 300 °C
• Cc1cc(C)c(C)c(CN2C(=O)COc3ccc(C=C4SC(=S)NC4=O)cc32)c1C [Example 96] = 277 to 280 °C
• O=C1NC(=S)SC1=Cc1ccc2c(c1)N(CCc1ccc(Cl)c(Cl)c1)C(=O)CO2 [Example 103] = 267 to 269 °C
• O=C1NC(=S)SC1=Cc1cc(Cl)c2c(c1)N(CCc1ccc(C(F)(F)F)cc1)C(=O)CO2 [Example 107] = 275 to 277 °C
• CCN(CC)Cc1ccc(CN2C(=O)COc3ccc(C=C4SC(=O)NC4=O)cc32)cc1 [Example 93] = 244 to 246 °C

----------
- system: PI3Kγ (p101/p110γ protein) (Homo sapiens, UniProt P48736)
- Construct: HA
- Sequence (P48736 whole entry, species assumed): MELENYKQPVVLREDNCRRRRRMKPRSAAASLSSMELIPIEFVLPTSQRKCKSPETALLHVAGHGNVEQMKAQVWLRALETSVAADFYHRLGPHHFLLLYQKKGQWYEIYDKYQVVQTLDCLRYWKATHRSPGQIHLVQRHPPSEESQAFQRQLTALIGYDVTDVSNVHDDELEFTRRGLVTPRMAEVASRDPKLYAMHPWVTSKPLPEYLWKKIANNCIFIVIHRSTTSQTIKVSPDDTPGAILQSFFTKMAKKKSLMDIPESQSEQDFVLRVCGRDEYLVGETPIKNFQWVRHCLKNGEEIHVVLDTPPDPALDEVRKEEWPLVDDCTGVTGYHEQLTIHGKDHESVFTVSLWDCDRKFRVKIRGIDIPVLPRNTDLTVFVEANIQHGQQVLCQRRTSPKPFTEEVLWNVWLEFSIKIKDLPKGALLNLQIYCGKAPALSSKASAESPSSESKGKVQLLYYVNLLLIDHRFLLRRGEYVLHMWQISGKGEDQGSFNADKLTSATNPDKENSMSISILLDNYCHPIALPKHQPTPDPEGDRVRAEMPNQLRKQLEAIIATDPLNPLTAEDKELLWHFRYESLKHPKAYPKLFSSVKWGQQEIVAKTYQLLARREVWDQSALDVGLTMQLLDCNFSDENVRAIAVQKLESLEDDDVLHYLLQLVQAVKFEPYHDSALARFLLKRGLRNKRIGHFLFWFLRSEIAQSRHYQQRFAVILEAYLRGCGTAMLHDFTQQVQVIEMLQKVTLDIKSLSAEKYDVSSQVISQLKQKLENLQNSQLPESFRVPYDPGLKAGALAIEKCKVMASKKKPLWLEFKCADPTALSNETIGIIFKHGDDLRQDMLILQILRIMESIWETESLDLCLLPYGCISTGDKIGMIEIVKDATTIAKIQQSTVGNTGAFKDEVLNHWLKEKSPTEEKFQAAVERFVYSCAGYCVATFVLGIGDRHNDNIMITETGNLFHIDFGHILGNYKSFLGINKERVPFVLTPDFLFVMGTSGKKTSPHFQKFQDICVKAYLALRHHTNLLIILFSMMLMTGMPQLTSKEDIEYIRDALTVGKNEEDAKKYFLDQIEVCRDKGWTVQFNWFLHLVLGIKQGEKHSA
- Sequence (Q8WYR1 whole entry partner, species assumed): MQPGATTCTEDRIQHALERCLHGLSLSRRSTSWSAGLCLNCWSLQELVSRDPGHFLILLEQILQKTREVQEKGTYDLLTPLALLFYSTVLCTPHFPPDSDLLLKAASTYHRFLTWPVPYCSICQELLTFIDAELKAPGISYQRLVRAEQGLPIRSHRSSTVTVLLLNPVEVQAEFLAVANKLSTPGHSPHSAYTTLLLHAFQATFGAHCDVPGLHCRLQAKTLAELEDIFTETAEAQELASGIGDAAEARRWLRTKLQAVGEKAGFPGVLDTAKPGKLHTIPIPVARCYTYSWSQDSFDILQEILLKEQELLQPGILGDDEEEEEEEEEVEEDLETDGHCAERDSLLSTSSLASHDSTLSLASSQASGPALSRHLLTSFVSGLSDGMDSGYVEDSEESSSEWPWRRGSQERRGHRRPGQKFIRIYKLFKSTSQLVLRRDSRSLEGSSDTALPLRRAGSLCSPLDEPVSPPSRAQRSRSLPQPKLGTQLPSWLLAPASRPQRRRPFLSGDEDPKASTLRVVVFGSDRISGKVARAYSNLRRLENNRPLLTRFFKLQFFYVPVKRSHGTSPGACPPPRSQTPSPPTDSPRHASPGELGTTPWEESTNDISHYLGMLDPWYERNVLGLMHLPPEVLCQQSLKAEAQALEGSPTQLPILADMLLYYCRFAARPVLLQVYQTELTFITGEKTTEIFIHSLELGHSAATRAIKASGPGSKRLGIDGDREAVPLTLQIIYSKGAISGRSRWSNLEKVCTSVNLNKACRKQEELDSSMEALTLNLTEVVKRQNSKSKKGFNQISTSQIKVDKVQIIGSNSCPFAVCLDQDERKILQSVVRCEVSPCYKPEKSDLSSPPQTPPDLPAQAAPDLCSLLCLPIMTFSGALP
- experimental.protocol: PI3Kγ In Vitro Kinase Assay
- experimental.context: purified recombinant p101/p110γ with G protein β1/γ2 subunits; 20 μM ATP, 25 μM PIP2; 20 minutes at room temperature
Recorded log10(IC50) for the following compounds
readout.type: log10(IC50) (log10 of the value in µM)

- CC(C)(C)c1ccc(CCN2C(=O)COc3ccc(C=C4SC(=S)NC4=O)cc32)cc1: -1.41
- Cc1ccc(CN2C(=O)COc3ccc(C=C4SC(=S)NC4=O)cc32)cc1: -1.54
- N#Cc1cccc(CN2C(=O)COc3ccc(C=C4SC(=S)NC4=O)cc32)c1: -1.68
- O=C1NC(=S)SC1=Cc1ccc2c(c1)N(Cc1ccc(S(=O)(=O)N3CCOCC3)cc1)C(=O)CO2: -1.89
- O=C1NC(=S)SC1=Cc1cc(F)c2c(c1)N(Cc1ccc(CN3CCOCC3)cc1)C(=O)CO2: -2.22
- CC(C)(C)c1cc(CN2C(=O)COc3c(F)cc(C=C4SC(=S)NC4=O)cc32)cc(C(C)(C)C)c1: -1.40
- Cc1cc(CN2C(=O)COc3ccc(C=C4SC(=S)NC4=O)cc32)cc(C)c1CN1CCOCC1: -0.47
- Cc1cc(C)cc(CN2C(=O)COc3c(Cl)cc(C=C4SC(=S)NC4=O)cc32)c1: -1.22

----------
Reported pIC50 values for a set of molecules
- system: PI3Kγ (p101/p110γ protein) (Homo sapiens, UniProt P48736)
- Construct: HA
- experimental.protocol: PI3Kγ In Vitro Kinase Assay
- experimental.context: purified recombinant p101/p110γ with G protein β1/γ2 subunits; 20 μM ATP, 25 μM PIP2; 20 minutes at room temperature
pIC50: −log10 of the molar value.
readout.type: pIC50

* O=C1NC(=S)SC1=Cc1ccc2c(c1)N(OCC1CCCCC1)C(=O)CO2 | 8.70
* Cc1cc(CN2C(=O)COc3ccc(C=C4SC(=S)NC4=O)cc32)cc(-c2ccsc2)c1 | 7.62
* CC(C)n1cnc2ccc(CN3C(=O)COc4ccc(C=C5SC(=S)NC5=O)cc43)cc21 | 8.05
* C[C@@H]1Oc2ccc(C=C3SC(=S)NC3=O)cc2NC1=O | 6.13
* O=C1NC(=S)SC1=Cc1ccc2c(c1)N(CCc1ccc(F)c(F)c1)C(=O)CO2 | 8.30
* CC(=O)OCc1cc(CN2C(=O)COc3c(F)cc(/C=C4\SC(=S)NC4=O)cc32)cc(C(C)(C)C)c1 | 7.68
* Cc1cc(CN2C(=O)COc3ccc(C=C4SC(=S)NC4=O)cc32)cc(-c2nccs2)c1 | 7.72
* CS(=O)(=O)c1ccc(CN2C(=O)COc3c(F)cc(/C=C4\SC(=S)NC4=O)cc32)cc1 | 8.00

----------
- system: PI3Kγ (p101/p110γ protein) (Homo sapiens, UniProt P48736)
- Construct: HA
- experimental.protocol: PI3Kγ In Vitro Kinase Assay
- experimental.context: purified recombinant p101/p110γ with G protein β1/γ2 subunits; 20 μM ATP, 25 μM PIP2; 20 minutes at room temperature
pIC50: −log10 of the molar value.
readout.type: pIC50

- CC(C)(C)c1cc(CN2C(=O)COc3ccc(C=C4SC(=S)NC4=O)cc32)cc(C(=O)O)c1 [Example 58]: 7.49
- O=C1NC(=S)SC1=Cc1ccc2c(c1)N(Cc1ccc3ccccc3c1)C(=O)CO2 [Example 188]: 7.70
- O=C1NC(=S)SC1=Cc1cc(F)c2c(c1)N(CCCN1CCCCC1)C(=O)CO2 [Example 243]: 6.74
- Cc1cc(C)cc(CN2C(=O)COc3c(Cl)cc(C=C4SC(=O)NC4=O)cc32)c1 [Example 68]: 6.26
- CC(C)(O)c1cc(CN2C(=O)COc3ccc(C=C4SC(=S)NC4=O)cc32)ccc1F [Example 304]: 8.10
- Cc1cc(CN2CCN(C)CC2)cc(CN2C(=O)COc3ccc(C=C4SC(=O)NC4=O)cc32)c1 [Example 251]: 7.60
- O=C1NC(=O)C(=Cc2cc(F)c3c(c2)N(Cc2ccc(CN4CCCCC4)cc2)C(=O)CO3)S1 [Example 76]: 8.22
- O=C1NC(=S)SC1=Cc1ccc2c(c1)N(Cc1cc(OS(=O)(=O)C(F)(F)F)cc(OS(=O)(=O)C(F)(F)F)c1)C(=O)CO2 [Example 44]: 6.58

----------
- system: PI3Kγ (p101/p110γ protein) (Homo sapiens, UniProt P48736)
- Construct: HA
- experimental.protocol: PI3Kγ In Vitro Kinase Assay
- experimental.context: purified recombinant p101/p110γ with G protein β1/γ2 subunits; 20 μM ATP, 25 μM PIP2; 20 minutes at room temperature
// classify(record): look up IC50 in ranges low interval (below 9 nM), middle interval (9 nM to below 30 nM), high interval (30 nM or more)

• Cc1cc(C=C2SC(=S)NC2=O)cc2c1OCC(=O)N2CCc1ccc(Cl)c(Cl)c1 [Example 112] = middle interval
• COc1ccc(CCN2C(=O)COc3ccc(C=C4SC(=S)NC4=O)cc32)cc1 [Example 136] = low interval
• O=C1NC(=S)SC1=Cc1cc(F)c2c(c1)N(Cc1ccccc1)C(=O)CO2 [Example 46] = low interval
• CC(C)(C)c1cc(CN2CCOCC2)cc(CN2C(=O)COc3ccc(/C=C4\SC(=S)NC4=O)cc32)c1 [Example 278] = low interval
• O=C1NC(=S)SC1=Cc1ccc2c(c1)N(Cc1ccc(CN3CCC4(CCCCC4)CC3)cc1)C(=O)CO2 [Example 238] = high interval
• CCOC(=O)N1CCN(Cc2ccc(CN3C(=O)COc4ccc(C=C5SC(=S)NC5=O)cc43)cc2)CC1 [Example 241] = high interval
• O=C1NC(=S)SC1=Cc1ccc2c(c1)N(CC1CC3C=CC1C3)C(=O)CO2 (centres unmarked) [Example 171] = middle interval
• COc1cc(CCN2C(=O)COc3ccc(C=C4SC(=S)NC4=O)cc32)cc(OC)c1 [Example 130] = low interval
• O=C1NC(=O)C(=Cc2ccc3c(c2)N(Cc2ccc(OCc4ccccc4)cc2)C(=O)CO3)S1 [Example 249] = low interval
• O=C1NC(=S)SC1=Cc1ccc2c(c1)N(CCc1cccc(Cl)c1)C(=O)CO2 [Example 135] = low interval
• O=C1CC(=Cc2ccc3c(c2)NC(=O)CO3)C(=O)N1 [Example 86] = high interval
• O=C1NC(=S)SC1=Cc1ccc2c(c1)N(Cc1cc(Cl)nc(Cl)c1)C(=O)CO2 [Example 225] = high interval
• CC(C)(C)c1ccc(CN2C(=O)COc3ccc(C=C4SC(=S)NC4=O)cc32)cc1 [Example 36] = low interval
• O=C1NC(=S)SC1=Cc1ccc2c(c1)N(Cc1cc(F)cc(C(F)(F)F)c1)C(=O)CO2 [Example 187] = high interval
• O=C1NC(=S)SC1=Cc1ccc2c(c1)N(CCc1ccc(Oc3ccccc3)cc1)C(=O)CO2 [Example 129] = high interval
• O=C1NC(=O)C(=Cc2ccc3c(c2)N(Cc2cccc(Oc4ccccc4F)c2)C(=O)CO3)S1 [Example 307] = low interval
• O=C1NC(=S)SC1=Cc1ccc2c(c1)N(Cc1cccnc1)C(=O)CO2 [Example 12] = middle interval
• CS(=O)(=O)c1cccc(CN2C(=O)COc3ccc(/C=C4\SC(=O)NC4=O)cc32)c1 [Example 265] = middle interval
• C/C(=C1/SC(=S)NC1=O)c1ccc2c(c1)NC(=O)CO2 [Example 268] = high interval
• O=C1NC(=S)SC1=Cc1ccc2c(c1)N(Cc1ccc3ncccc3c1)C(=O)CO2 [Example 337] = low interval
• O=C1NC(=S)SC1=Cc1ccc2c(c1)N(Cc1cccc(SC(F)(F)F)c1)C(=O)CO2 [Example 165] = middle interval
• O=C1NC(=S)SC1=Cc1ccc2c(c1)N(Cc1cccc(S(=O)(=O)N3CCOCC3)c1)C(=O)CO2 [Example 257] = middle interval
• CCN(CC)Cc1ccc(CN2C(=O)COc3c(C)cc(C=C4SC(=S)NC4=O)cc32)cc1 [Example 92] = low interval
• Cc1cc(CN2C(=O)COc3ccc(C=C4SC(=S)N(CC(=O)O)C4=O)cc32)c(C(F)(F)F)o1 [Example 321] = high interval
• CN(C)S(=O)(=O)c1cccc(CN2C(=O)COc3ccc(C=C4SC(=O)NC4=O)cc32)c1 [Example 256] = middle interval
• O=C1NC(=O)C(=Cc2ccc3c(c2)N(Cc2ccc(CN4CCC5(CCCCC5)CC4)cc2)C(=O)CO3)S1 [Example 239] = high interval
• COCCN(CCCN1C(=O)COc2c(F)cc(C=C3SC(=S)NC3=O)cc21)CCOC [Example 313] = high interval
• CC(C)(C)c1cc(CN2C(=O)COc3ccc(C=C4SC(=O)NC4=O)cc32)cc(C(C)(C)C)c1 [Example 85] = middle interval
• Cc1cc(CN2C(=O)COc3ccc(C=C4SC(=S)NC4=O)cc32)c(C)o1 [Example 317] = middle interval
